- System: L1210 cells
- Test name: In vitro cytotoxicity of the peptide derivative (I), MTS method, L1210 cells
- Type: cell-based, mouse
- Recorded conditions: Mus musculus
Recorded EC50 by entry
// note: answer is a bare numeric in nM

Smiles notation	Measured target	EC50 [nM]
CC[C@H](C)[C@@H]([C@@H](CC(=O)N1CCC[C@H]1[C@H](OC)[C@@H](C)C(=O)N[C@@H](Cc1ccccc1)c1nc(C(=O)NCCc2ccc(O)cc2)cs1)OC)N(C)C(=O)[C@@H](NC(=O)[C@H](C(C)C)N(C)C)C(C)C	L1210 cells	5.61

Please examine the following record next.
Please tell me: EC50 of CC[C@H](C)[C@@H]([C@@H](CC(=O)N1CCC[C@H]1[C@H](OC)[C@@H](C)C(=O)N[C@@H](Cc1ccccc1)c1nc(C(=O)OCCO)cs1)OC)N(C)C(=O)[C@@H](NC(=O)[C@H](C(C)C)N(C)C)C(C)C , system L1210 cells?
4.74

* * *

- Test system: L1210 cells
- Test name: In vitro cytotoxicity of the peptide derivative (I), MTS method, L1210 cells
- Type: cell-based, mouse
- Recorded conditions: Mus musculus
Where a name gives a salt, the structure may show the parent alone.
Quantity kind: pEC50
Please report pEC50 as the negative decimal logarithm of the molar concentration, giving only the number.

Molecule	Measured target	pEC50
CC[C@H](C)[C@@H]([C@@H](CC(=O)N1CCC[C@H]1[C@H](OC)[C@@H](C)C(=O)N[C@@H](Cc1ccccc1)c1nc(C(=O)N(C)CCO)cs1)OC)N(C)C(=O)[C@@H](NC(=O)[C@H](C(C)C)N(C)C)C(C)C	L1210 cells	8.07

Please examine the following record next.
Data request, read-out pEC50, for CC[C@H](C)[C@@H]([C@@H](CC(=O)N1CCC[C@H]1[C@H](OC)[C@@H](C)C(=O)N[C@@H](Cc1ccccc1)c1nc(C(=O)NCCNC)cs1)OC)N(C)C(=O)[C@@H](NC(=O)[C@H](C(C)C)N(C)C)C(C)C [Reference Example 14, dihydrochloride, reference compound]
7.57

* * *

- System: L1210 cells
- Test name: In vitro cytotoxicity of the peptide derivative (I), MTS method, L1210 cells
- Assay type: cell-based, mouse
- Recorded conditions: Mus musculus
pEC50: −log10 of the molar value. Counter-ions that a name gives are not always drawn.
Label criterion met when pEC50 >= 8; otherwise criterion not met.

Molecule	Group label
CC[C@H](C)[C@@H]([C@@H](CC(=O)N1CCC[C@H]1[C@H](OC)[C@@H](C)C(=O)N[C@@H](Cc1ccccc1)c1nc(C(=O)NCCS)cs1)OC)N(C)C(=O)[C@@H](NC(=O)[C@H](C(C)C)N(C)C)C(C)C	criterion not met
CC[C@H](C)[C@@H]([C@@H](CC(=O)N1CCC[C@H]1[C@H](OC)[C@@H](C)C(=O)N[C@@H](Cc1ccccc1)c1nc(C(=O)N(C)CCNC)cs1)OC)N(C)C(=O)[C@@H](NC(=O)[C@H](C(C)C)N(C)C)C(C)C [Example 6, dihydrochloride]	criterion not met

Could you verify whether the entry CC[C@H](C)[C@@H]([C@@H](CC(=O)N1CCC[C@H]1[C@H](OC)[C@@H](C)C(=O)N[C@@H](Cc1ccccc1)c1nc(C(=O)NCCNC(=O)CCS)cs1)OC)N(C)C(=O)[C@@H](NC(=O)[C@H](C(C)C)N(C)C)C(C)C [Reference Example 16, reference compound] shows pEC50 of no less than 8?
criterion not met

Ok, now CC[C@H](C)[C@@H]([C@@H](CC(=O)N1CCC[C@H]1[C@H](OC)[C@@H](C)C(=O)N[C@@H](Cc1ccccc1)c1nc(C(=O)NCCc2ccc(N)cc2)cs1)OC)N(C)C(=O)[C@@H](NC(=O)[C@H](C(C)C)N(C)C)C(C)C
criterion met

Ok, now CC[C@H](C)[C@@H]([C@@H](CC(=O)N1CCC[C@H]1[C@H](OC)[C@@H](C)C(=O)N[C@@H](Cc1ccccc1)c1nc(C(=O)OCCN)cs1)OC)N(C)C(=O)[C@@H](NC(=O)[C@H](C(C)C)N(C)C)C(C)C
criterion not met

Ok, now CC[C@H](C)[C@@H]([C@@H](CC(=O)N1CCC[C@H]1[C@H](OC)[C@@H](C)C(=O)N[C@@H](Cc1ccccc1)c1nc(C(=O)NCCO)cs1)OC)N(C)C(=O)[C@@H](NC(=O)[C@H](C(C)C)N(C)C)C(C)C
criterion not met
